Biological target: Voltage-dependent L-type calcium channel subunit alpha-1C (Homo sapiens, UniProt Q13936)
Sequence (Q13936 whole entry): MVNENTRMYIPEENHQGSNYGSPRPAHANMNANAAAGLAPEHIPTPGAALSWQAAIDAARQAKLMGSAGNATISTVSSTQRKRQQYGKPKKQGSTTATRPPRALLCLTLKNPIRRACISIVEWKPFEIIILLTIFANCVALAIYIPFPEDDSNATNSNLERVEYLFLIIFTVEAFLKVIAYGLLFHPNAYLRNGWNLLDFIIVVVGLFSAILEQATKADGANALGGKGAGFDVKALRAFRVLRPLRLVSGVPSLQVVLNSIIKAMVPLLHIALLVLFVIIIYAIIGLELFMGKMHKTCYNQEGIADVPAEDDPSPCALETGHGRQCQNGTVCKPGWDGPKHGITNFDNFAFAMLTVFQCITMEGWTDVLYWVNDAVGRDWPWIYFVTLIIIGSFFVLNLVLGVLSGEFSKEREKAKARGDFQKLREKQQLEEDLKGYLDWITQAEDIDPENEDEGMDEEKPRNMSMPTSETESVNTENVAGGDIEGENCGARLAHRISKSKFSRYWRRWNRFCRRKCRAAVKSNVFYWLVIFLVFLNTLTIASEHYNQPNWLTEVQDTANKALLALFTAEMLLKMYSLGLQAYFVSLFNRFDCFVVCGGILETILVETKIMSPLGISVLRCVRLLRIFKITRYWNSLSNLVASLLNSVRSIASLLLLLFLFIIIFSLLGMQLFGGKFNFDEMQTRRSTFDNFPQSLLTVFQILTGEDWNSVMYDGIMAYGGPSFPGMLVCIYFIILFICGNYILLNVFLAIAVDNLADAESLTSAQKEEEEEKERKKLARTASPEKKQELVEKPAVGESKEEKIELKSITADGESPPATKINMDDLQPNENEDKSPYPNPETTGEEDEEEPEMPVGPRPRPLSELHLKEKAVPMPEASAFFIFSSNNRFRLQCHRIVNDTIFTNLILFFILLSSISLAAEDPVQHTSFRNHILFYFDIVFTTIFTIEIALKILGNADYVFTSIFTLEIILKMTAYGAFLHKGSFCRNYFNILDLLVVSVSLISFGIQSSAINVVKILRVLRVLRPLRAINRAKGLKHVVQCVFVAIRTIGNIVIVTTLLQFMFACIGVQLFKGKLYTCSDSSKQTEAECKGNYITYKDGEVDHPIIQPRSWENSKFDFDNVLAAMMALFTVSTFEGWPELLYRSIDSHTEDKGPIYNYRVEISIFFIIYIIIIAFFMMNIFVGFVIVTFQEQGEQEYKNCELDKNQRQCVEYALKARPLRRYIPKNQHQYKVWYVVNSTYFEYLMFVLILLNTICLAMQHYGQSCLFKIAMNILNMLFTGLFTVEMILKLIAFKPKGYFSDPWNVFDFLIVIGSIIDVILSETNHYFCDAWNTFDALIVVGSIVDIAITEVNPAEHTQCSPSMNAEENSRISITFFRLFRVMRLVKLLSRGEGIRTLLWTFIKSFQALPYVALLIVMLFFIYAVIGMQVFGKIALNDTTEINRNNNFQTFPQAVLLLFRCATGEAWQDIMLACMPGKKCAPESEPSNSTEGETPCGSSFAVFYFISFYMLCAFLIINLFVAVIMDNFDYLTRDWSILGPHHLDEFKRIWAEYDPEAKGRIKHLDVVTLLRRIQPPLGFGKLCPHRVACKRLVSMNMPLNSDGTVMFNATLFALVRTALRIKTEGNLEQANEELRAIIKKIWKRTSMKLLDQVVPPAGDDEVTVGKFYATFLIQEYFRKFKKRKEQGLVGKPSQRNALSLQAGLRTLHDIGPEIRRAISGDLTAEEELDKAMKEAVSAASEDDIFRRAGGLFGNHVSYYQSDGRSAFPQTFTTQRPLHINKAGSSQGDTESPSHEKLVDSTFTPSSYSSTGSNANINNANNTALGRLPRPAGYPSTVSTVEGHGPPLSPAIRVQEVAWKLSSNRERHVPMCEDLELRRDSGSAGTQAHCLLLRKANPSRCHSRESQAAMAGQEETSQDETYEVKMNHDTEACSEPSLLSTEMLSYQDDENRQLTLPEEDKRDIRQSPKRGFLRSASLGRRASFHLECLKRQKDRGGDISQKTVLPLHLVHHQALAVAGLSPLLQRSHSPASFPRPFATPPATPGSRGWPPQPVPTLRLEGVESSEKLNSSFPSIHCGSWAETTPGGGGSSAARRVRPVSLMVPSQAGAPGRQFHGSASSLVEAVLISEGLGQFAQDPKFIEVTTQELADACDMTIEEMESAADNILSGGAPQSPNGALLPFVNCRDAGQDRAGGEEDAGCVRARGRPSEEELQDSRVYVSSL
Experiment: Inhibition of Cav1.2 (unknown origin)
observation.type: IC50

Indicate its recorded IC50; the compound in question is COc1cc([C@@H](C)C(=O)N2CC[C@@]3(COc4cc(-c5ncccn5)c(C)nc4N3)C2)c(F)cn1 > 100 µM

----------
Target: Sodium channel protein type 5 subunit alpha (Homo sapiens)
Sequence (Q14524 whole entry): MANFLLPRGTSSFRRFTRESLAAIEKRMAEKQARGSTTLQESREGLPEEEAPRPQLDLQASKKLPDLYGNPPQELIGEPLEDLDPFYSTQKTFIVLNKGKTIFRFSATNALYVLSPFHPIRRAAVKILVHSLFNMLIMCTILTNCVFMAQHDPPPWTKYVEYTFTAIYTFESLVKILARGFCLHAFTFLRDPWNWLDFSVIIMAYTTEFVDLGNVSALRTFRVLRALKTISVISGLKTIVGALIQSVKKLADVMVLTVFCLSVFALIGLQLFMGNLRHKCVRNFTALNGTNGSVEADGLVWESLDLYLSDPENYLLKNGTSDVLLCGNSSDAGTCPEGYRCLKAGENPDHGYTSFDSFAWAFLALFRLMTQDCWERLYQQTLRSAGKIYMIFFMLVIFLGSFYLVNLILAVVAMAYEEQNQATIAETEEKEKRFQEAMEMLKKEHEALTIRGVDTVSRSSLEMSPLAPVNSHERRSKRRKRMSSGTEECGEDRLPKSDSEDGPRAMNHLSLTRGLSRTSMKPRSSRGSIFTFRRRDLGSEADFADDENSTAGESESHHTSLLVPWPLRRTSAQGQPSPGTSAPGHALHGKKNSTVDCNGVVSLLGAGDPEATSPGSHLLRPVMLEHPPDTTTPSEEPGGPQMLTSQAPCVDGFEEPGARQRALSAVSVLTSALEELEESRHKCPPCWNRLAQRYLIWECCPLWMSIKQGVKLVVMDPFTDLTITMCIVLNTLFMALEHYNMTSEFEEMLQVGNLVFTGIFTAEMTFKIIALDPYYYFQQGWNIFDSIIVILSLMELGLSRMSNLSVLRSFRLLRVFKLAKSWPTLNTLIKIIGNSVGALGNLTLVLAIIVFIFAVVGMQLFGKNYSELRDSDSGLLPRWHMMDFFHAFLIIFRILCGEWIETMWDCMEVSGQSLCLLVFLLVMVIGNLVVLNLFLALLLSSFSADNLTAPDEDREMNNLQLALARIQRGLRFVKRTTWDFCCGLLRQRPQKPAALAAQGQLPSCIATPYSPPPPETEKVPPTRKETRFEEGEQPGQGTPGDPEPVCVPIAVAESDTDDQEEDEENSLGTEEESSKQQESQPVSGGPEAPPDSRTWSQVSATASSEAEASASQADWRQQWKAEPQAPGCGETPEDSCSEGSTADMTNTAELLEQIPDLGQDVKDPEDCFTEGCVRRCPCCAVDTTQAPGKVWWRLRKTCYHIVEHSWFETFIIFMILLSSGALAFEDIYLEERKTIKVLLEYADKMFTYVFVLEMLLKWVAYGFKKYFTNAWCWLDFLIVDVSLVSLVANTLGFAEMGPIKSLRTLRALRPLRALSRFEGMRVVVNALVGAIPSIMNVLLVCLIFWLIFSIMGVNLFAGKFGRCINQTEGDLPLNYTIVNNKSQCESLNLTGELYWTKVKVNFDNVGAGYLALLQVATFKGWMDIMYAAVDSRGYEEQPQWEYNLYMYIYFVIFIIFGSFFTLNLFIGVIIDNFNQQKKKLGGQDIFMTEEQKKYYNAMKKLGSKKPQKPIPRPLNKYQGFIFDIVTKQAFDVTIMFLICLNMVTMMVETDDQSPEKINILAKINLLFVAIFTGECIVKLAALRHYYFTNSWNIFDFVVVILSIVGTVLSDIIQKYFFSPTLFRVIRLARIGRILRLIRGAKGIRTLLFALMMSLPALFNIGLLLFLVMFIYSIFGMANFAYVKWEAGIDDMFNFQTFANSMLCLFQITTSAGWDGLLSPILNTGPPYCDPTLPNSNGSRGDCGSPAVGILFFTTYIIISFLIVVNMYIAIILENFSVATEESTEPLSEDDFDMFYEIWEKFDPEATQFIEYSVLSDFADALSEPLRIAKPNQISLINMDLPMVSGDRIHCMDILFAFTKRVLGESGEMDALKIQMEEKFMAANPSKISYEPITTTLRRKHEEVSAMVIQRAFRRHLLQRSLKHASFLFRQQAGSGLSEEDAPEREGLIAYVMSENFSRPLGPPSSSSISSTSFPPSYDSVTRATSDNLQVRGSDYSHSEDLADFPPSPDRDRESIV
Experiment: Inhibition of recombinant human Nav1.5 expressed in CHO cells by whole cell voltage clamp electrophysiology recording
Format: cell-based
observation.type: IC50

Indicate its recorded IC50; the molecule in question is COc1cc([C@@H](C)C(=O)N2CC[C@@]3(COc4cc(-c5ncccn5)c(C)nc4N3)C2)c(F)cn1 > 100 µM
